- ASSAYED_SYSTEM: T1, human TIGIT-Fc (human, UniProt Q495A1 22-141, limits assumed)
- T1 construct: not shown: Fc; not described
- T1 sequence (looked up): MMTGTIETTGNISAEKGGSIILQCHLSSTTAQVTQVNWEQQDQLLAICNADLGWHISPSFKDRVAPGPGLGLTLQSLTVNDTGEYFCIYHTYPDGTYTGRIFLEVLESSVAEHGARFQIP
- ASSAY_DETAILS: CD155 competition ELISA, single point; note: test concentration or dose not given here
For each of the binders below, state its OD (450 nm).
Numeric answer plus unit only.

Incoming: Could you share which OD (450 nm) value was measured for TIGIT-SC105 (Fc fusion, VHH-Fc) VHH: EVQLVESGGGLVQPGGSLRLSCAASGFAFSRYGMGWFRQAPGKERELVATIGWSGSSTFYADSVKGRFTISADNSKNTAYLQMNSLKPEDTAVYYCARDGGPYYYGLDVWGQGTLVTVSS ?
Outgoing: 0.959 OD

Incoming: Could you share which OD (450 nm) value was measured for TIGIT-SC158 (Fc fusion, VHH-Fc) VHH: EVQLVESGGGLVQPGGSLRLSCAASGFTFSPSWMGWFRQAPGKEREWVASVLRGGYTWYADSVKGRFTISADNSKNTAYLQMNSLKPEDTAVYYCAREGRSSSPWFDPWGQGTLVTVSS ?
Outgoing: 0.472 OD

Incoming: Could you share which OD (450 nm) value was measured for TIGIT-SC75 (Fc fusion, VHH-Fc) VHH: EVQLVESGGGLVQPGGSLRLSCAASGFIGNYHAMGWFRQAPGKEREFVAAIRWSDGSSYYADSVKGRFTISADNSKNTAYLQMNSLKPEDTAVYYCAKWSYYGSGLYGMDVWGQGTLVTVSS ?
Outgoing: 0.652 OD

Incoming: Could you share which OD (450 nm) value was measured for TIGIT-SC22 (Fc fusion, VHH-Fc) VHH: EVQLVESGGGLVQPGGSLRLSCAASGFTLENNMMGWFRQAPGKEREMVAAISWSGGSALYADSVKGRFTISADNSKNTAYLQMNSLKPEDTAVYYCARGDGYSYGNFDYWGQGTLVTVSS ?
Outgoing: 0.552 OD
